These data points were gathered from paper PMC7586906.

biological target: T1, USUV strain Vienna-2001 whole virus (E protein on virions) (Usutu virus Vienna-2001, UniProt Q5WPU5, strain); assay: ELISA; virus ELISA: PEG-precipitated USUV Vienna-2001 (8.1 × 10^6 pfu in 50 μl) coated on the plate, blocked with 5% BSA, scFv 2.5-20 μg/ml for 1 hr at 37°C, detected by HRP anti-His, 450 nm; settings: one partner purified
T1 construct: envelope (E) protein of Usutu virus strain Vienna-2001, cut from the polyprotein, as it stands on whole virions coated on the plate; The assay used whole virus; The other proteins of the virion are not written; also called USUV Vienna-2001; source: virus expanded in C6/36 cells, precipitated with 8% PEG8000, resuspended in NTE buffer
VALUE KIND: binding result

{"BINDER": "scFv A8 (scFv, V domains shown, chicken light chain variable region (V lambda) of A8, N-terminal part of the scFv; long linker between V lambda and VH; chicken heavy chain variable region (VH) of A8; From a chicken immune phage display library in pComb3XSS; source: E. coli TOP10, purified (IMAC, HisTrap FF); not shown: His6, C-terminal, kept; HA, C-terminal, kept) VH: AVTLDESGGGLQTPGGGLSLVCKASGFTMSSYHMGWVRQAPGKGLEYVVGIDNTGRYTDYGAAVKGRATISRDNGQSTLRLQLNNLRAEDTGTYFCAKSAYLGRGCWDAELCAGEIDAWGHGTEVIVSS VL: ALTQPSSVSANLGGTVKITCSGGYSGYGWYQQKSPGSAPVTLIYDNTKRPSDIPSRFSGSKSGSTGTLTITGVQAEDEAVYYCGSGDSRNYVGIFGAGTTLTVR", "VALUE KIND": "binding result", "OBSERVED RESULT": "binds"}
{"BINDER": "scFv D2.2 (scFv, V domains shown, chicken light chain variable region (V lambda) of D2.2, N-terminal part of the scFv; long linker between V lambda and VH; chicken heavy chain variable region (VH) of D2.2; From a chicken immune phage display library in pComb3XSS; source: E. coli TOP10, purified (IMAC, HisTrap FF); not shown: His6, C-terminal, kept; HA, C-terminal, kept) VH: AVTLDESGGGLQTPGGALSLVCKGSGFTFSSHAMMWVRQAPGKGLEWVAGISRDGSTYYGAAVKGRATISRDDGQSTVRLQLNNLRAEDTGTYFCAKDVYGYCDTISGCEAGTIDAWGHGTEVIVSS VL: ALTQPSSVSANLGETVKITCSGSSGSYGWYQQKSPGSAPVTVIYYNDKRPSDIPSRFSGSKSGSTGTLTITGVQADDEAVYFCGSEDSSSTYAGIFGAGTTLTVL", "VALUE KIND": "binding result", "OBSERVED RESULT": "binds"}
